- method-description: KARI assay of purified S. exigua KARI and variants with NADH (Examples 6-9)
- Format: biochemical
- condition: read-out: Km for cofactor NADH
assay-endpoint: Km (µM)
Answers are plain numbers, in µM.

Give one value of Km per listed molecule.
1. Se1_KARI^HF2-his6: S. exigua KARI variant S61C (protein, UniProt D0WGK0 1-342, looked up, variant S61C, His6 tag, S. exigua KARI variant S61C) Ketol-acid reductoisomerase …: MSVKTKEKEMAVTILYEQDVDPKVIQGLKVGIIGYGSQGHAHALNLMDSGVDVRVGLREGCSSWKTAEEAGLKVTDMDTAAEEADVIMVLVPDEIQPKVYQEHIAAHLKAGNTLAFAHGFNIHYGYIVPPEDVNVIMCAPKGPGHIVRRQFTEGSGVPDLACVQQDATGNAWDIVLSYCWGVGGARSGIIKATFAEETEEDLFGEQAVLCGGLVELVKAGFETLTEAGYPPELAYFECYHEMKMIVDLMYESGIHFMNYSISNTAEYGEYYAGPKVINEQSREAMKEILKRIQDGSFAQEFVDDCNNGHKRLLEQREAINTHPIETTGAQIRSMFSWIKKED
2. Se1_KARI^AC1: S. exigua KARI variant S63D, I95A (protein, UniProt D0WGK0 1-342, looked up, variant S63D I95A) Ketol-acid reductoisomerase …: MSVKTKEKEMAVTILYEQDVDPKVIQGLKVGIIGYGSQGHAHALNLMDSGVDVRVGLREGSSDWKTAEEAGLKVTDMDTAAEEADVIMVLVPDEAQPKVYQEHIAAHLKAGNTLAFAHGFNIHYGYIVPPEDVNVIMCAPKGPGHIVRRQFTEGSGVPDLACVQQDATGNAWDIVLSYCWGVGGARSGIIKATFAEETEEDLFGEQAVLCGGLVELVKAGFETLTEAGYPPELAYFECYHEMKMIVDLMYESGIHFMNYSISNTAEYGEYYAGPKVINEQSREAMKEILKRIQDGSFAQEFVDDCNNGHKRLLEQREAINTHPIETTGAQIRSMFSWIKKED
3. Se1_KARI^LE1-his6: S. exigua KARI variant I95V (protein, UniProt D0WGK0 1-342, looked up, variant I95V, His6 tag, S. exigua KARI variant I95V) Ketol-acid reductoisomerase …: MSVKTKEKEMAVTILYEQDVDPKVIQGLKVGIIGYGSQGHAHALNLMDSGVDVRVGLREGSSSWKTAEEAGLKVTDMDTAAEEADVIMVLVPDEVQPKVYQEHIAAHLKAGNTLAFAHGFNIHYGYIVPPEDVNVIMCAPKGPGHIVRRQFTEGSGVPDLACVQQDATGNAWDIVLSYCWGVGGARSGIIKATFAEETEEDLFGEQAVLCGGLVELVKAGFETLTEAGYPPELAYFECYHEMKMIVDLMYESGIHFMNYSISNTAEYGEYYAGPKVINEQSREAMKEILKRIQDGSFAQEFVDDCNNGHKRLLEQREAINTHPIETTGAQIRSMFSWIKKED
4. Se1_KARI^4E10: S. exigua KARI variant L57V, R58P, S61C (protein, UniProt D0WGK0 1-342, looked up, variant L57V R58P S61C) Ketol-acid reductoisomerase …: MSVKTKEKEMAVTILYEQDVDPKVIQGLKVGIIGYGSQGHAHALNLMDSGVDVRVGVPEGCSSWKTAEEAGLKVTDMDTAAEEADVIMVLVPDEIQPKVYQEHIAAHLKAGNTLAFAHGFNIHYGYIVPPEDVNVIMCAPKGPGHIVRRQFTEGSGVPDLACVQQDATGNAWDIVLSYCWGVGGARSGIIKATFAEETEEDLFGEQAVLCGGLVELVKAGFETLTEAGYPPELAYFECYHEMKMIVDLMYESGIHFMNYSISNTAEYGEYYAGPKVINEQSREAMKEILKRIQDGSFAQEFVDDCNNGHKRLLEQREAINTHPIETTGAQIRSMFSWIKKED

1. 43.8
2. 68
3. 19
4. 49

All values here come from patent US20140295512A1.
